Tested on: MDA-MB-453
Test: Inhibition of tumor cell proliferation, CellTiter-Glo, MDA-MB-453
Format: cell-based
Conditions: Homo sapiens, MDA-MB-453; compound concentration 50 μM, 72 hours; read-out: Inhibitory activity against proliferation (cell survival rate) MDA-MB-453
quantity-measured: cell survival rate (%) at 50 µM

Query: Can you share its cell survival rate (%) at 50 µM? I mean this compound: O=C1CCC(N2Cc3c(N/C=C4\C(=O)CC(Cc5ccccc5)C4=O)cccc3C2=O)C(=O)N1 (stereo not shown)
Response: 30 to 60%

Query: Can you share its cell survival rate (%) at 50 µM? I mean this compound: CC1C(=O)/C(=C/Nc2cccc3c2CN(C2CCC(=O)NC2=O)C3=O)C(=O)CC1c1ccccc1 (stereo not shown)
Response: 60 to 90%

Query: Can you share its cell survival rate (%) at 50 µM? I mean this compound: O=C1CCC(N2Cc3c(NC=C4C(=O)CC(c5nccs5)CC4=O)cccc3C2=O)C(=O)N1 (stereo not shown)
Response: ≤ 30%

Query: Can you share its cell survival rate (%) at 50 µM? I mean this compound: CCOC(=O)C1C(=O)C(=CNc2cccc3c2CN(C2CCC(=O)NC2=O)C3=O)C(=O)CC1c1cccc2[nH]ccc12 (stereo not shown)
Response: 60 to 90%

###

So I've got a bunch of compounds here, and I need their cell survival rate (%) at 50 µM values.
Tested on: MDA-MB-453
Assay: Inhibition of tumor cell proliferation, CellTiter-Glo, MDA-MB-453
Type: cell-based
Conditions: Homo sapiens, MDA-MB-453; compound concentration 50 μM, 72 hours; read-out: Inhibitory activity against proliferation (cell survival rate) MDA-MB-453

Query: Can you share its cell survival rate (%) at 50 µM? I mean this compound: O=C1CCC(N2Cc3c(N/C=C4\C(=O)CC(c5ccccc5)NC4=O)cccc3C2=O)C(=O)N1 (stereo not shown)
Response: 60 to 90%

Query: Can you share its cell survival rate (%) at 50 µM? I mean this compound: O=C1CCC(N2Cc3c(NC(=O)OCc4ccc(NC=C5C(=O)CC(c6ccccc6)CC5=O)nc4)cccc3C2=O)C(=O)N1 (stereo not shown)
Response: 30 to 60%

Query: Can you share its cell survival rate (%) at 50 µM? I mean this compound: CCOC(=O)C1C(=O)C(=CNc2cccc3c2C(=O)N(C2CCC(=O)NC2=O)C3=O)C(=O)CC1c1cccc2[nH]ccc12 (stereo not shown)
Response: 60 to 90%

Query: Can you share its cell survival rate (%) at 50 µM? I mean this compound: O=C1CCC(N2Cc3c(NC=C4C(=O)CN(c5ccccc5)CC4=O)cccc3C2=O)C(=O)N1 (stereo not shown)
Response: 30 to 60%

###

Biological target: LC3B (Homo sapiens (Human), UniProt Q9GZQ8)
Experiment: Fluorescence polarization experiment targeting LC3B (GST-LC3B with FITC-labeled peptide)
Conditions: GST-LC3B 180 nM, FITC-labeled peptide 18 nM, 25° C.
quantity-measured: IC50

Query: Which measured IC50 belongs to O=C1CCC(N2C(=O)c3cccc(NC=C4C(=O)CC(c5cccc(Cl)c5Cl)CC4=O)c3C2=O)C(=O)N1 (stereo not shown) , tested on LC3B (Homo sapiens (Human), UniProt Q9GZQ8)?
Response: < 3 µM

Query: Which measured IC50 belongs to O=C1CCC(N2Cc3c(NC(=O)CNC=C4C(=O)CC(c5ccccc5)CC4=O)cccc3C2=O)C(=O)N1 (stereo not shown) , tested on LC3B (Homo sapiens (Human), UniProt Q9GZQ8)?
Response: 100 to 1000 µM

Query: Which measured IC50 belongs to O=C1CCC(N2Cc3c(NC=C4C(=O)CC(c5cc(C(F)(F)F)ccc5Cl)CC4=O)cccc3C2=O)C(=O)N1 (stereo not shown) , tested on LC3B (Homo sapiens (Human), UniProt Q9GZQ8)?
Response: < 3 µM

Query: Which measured IC50 belongs to O=C1CCC(N2Cc3c(NC=C4C(=O)CC(c5ccc(F)cc5Br)CC4=O)cccc3C2=O)C(=O)N1 (stereo not shown) , tested on LC3B (Homo sapiens (Human), UniProt Q9GZQ8)?
Response: < 3 µM

Query: Which measured IC50 belongs to O=C1CCC(N2Cc3c(NC=C4C(=O)CC(c5ccc(Cl)cc5F)CC4=O)cccc3C2=O)C(=O)N1 (stereo not shown) , tested on LC3B (Homo sapiens (Human), UniProt Q9GZQ8)?
Response: < 3 µM

Query: Which measured IC50 belongs to O=C1CCC(N2Cc3c(NC(=O)c4ccc(NC=C5C(=O)CC(c6ccccc6)CC5=O)cc4)cccc3C2=O)C(=O)N1 (stereo not shown) , tested on LC3B (Homo sapiens (Human), UniProt Q9GZQ8)?
Response: 15 to 100 µM

Query: Which measured IC50 belongs to O=C1CCC(N2Cc3c(NC=C4C(=O)CC(c5c[nH]c6cccc(F)c56)CC4=O)cccc3C2=O)C(=O)N1 (stereo not shown) , tested on LC3B (Homo sapiens (Human), UniProt Q9GZQ8)?
Response: < 3 µM

// data source = patent US11021457B2
